Reported optical density remaining after radiation (photostability) values for the following molecules.
- measurement_notes: Photofading under iodine-tungsten lamp irradiation in Tris-HCl buffer
- Assay type: physicochemical
- condition_details: 5×10^−6 M in Tris-HCl 10 mM pH 7.4; 500 W iodine-tungsten lamp, 20 cm; after 6 h of radiation
observation_type: optical density remaining after radiation (photostability)

>>> result("C=CCCN1/C(=C(C#N)\\C=C\\c2cc[n+](CC)c3cc(OC)ccc23)Sc2ccccc21.[I-]")
"90%"
>>> result("CC[n+]1ccc(/C=C/C(C#N)=C2/Sc3ccccc3N2C)c2ccccc21.[I-]")
"90%"
>>> result("CC[n+]1ccc(/C=C/C=C2/Sc3ccccc3N2C)c2ccccc21.[I-] [Compound M1, reference compound]")
"~0%"
>>> result("CN1/C(=C(C#N)\\C=C\\c2cc[n+](CCO)c3ccccc23)Sc2cc(Cl)ccc21.Cl")
"90%"
